- TEST TARGET: T1, wildtype feline IL-31 protein (Feline_IL31_wildtype) (feline)
- T1 construct: Full length feline IL-31 with C-terminal His tag, secreted from ExpiCHO cells; also called fIL-31
- T1 chain: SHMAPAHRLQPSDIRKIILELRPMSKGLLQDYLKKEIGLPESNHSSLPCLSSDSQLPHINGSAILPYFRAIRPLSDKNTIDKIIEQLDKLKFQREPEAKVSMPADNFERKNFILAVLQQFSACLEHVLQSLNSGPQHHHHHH
- TEST METHOD NOTES: Biacore, feline IL-31 chip, mAb 100 nM, share of points within parent mean +/-3 SD
- Set-up: key: % of mutant data points within parent mAb mean ±3 SD
RECORDED METRIC: Binding Similarity score

Ask: # query: Binding Similarity score of entry A39 (antibody, V domains shown) VH: QVLLVQSGAEVRTPGASVKIFCKASGYSFTSYTIHWLRQAPAQGLEWMGNIAPTSGYTENNQRFKDRLTLTADTSTNTAYMELSSLRSADTAMYYCARWGFKYDGEWSFDVWGAGTTVTVSS VL: EIQMTQSPSSLSASPGDRVTITCRASQGISIWLSWYQQKPGNIPKVLINKASNLHIGVPSRFSGSGSGTDFTLTISSLEPEDAATYYCLQSQTYPLTFGGGTKLEIK
Result: 100

Ask: # query: Binding Similarity score of entry A36 (antibody, V domains shown) VH: QVLLVQSGAEVRTPGASVKIFCKASGYSFTSYTIAWLRQAPAQGLEWMGNINPTSGYTENNQRFKDRLTLTADTSTNTAYMELSSLRSADTAMYYCARWGFKYDGEWSFDVWGAGTTVTVSS VL: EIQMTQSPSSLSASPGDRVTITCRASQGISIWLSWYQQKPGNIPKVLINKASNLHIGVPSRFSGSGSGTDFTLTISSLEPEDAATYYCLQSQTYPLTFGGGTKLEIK
Result: 10.4

Ask: # query: Binding Similarity score of entry A55 (antibody, V domains shown) VH: QVLLVQSGAEVRTPGASVKIFCKASGYSFTSYTIHWLRQAPAQGLEWMGNINPTSGYTENNQRFKDRLTLTADTSTNTAYMELSSLRSADTAMYYCARWGFAYDGEWSFDVWGAGTTVTVSS VL: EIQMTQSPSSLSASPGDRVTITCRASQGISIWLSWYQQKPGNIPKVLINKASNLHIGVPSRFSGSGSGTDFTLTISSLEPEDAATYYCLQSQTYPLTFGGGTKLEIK
Result: 12.6
